Sourced from patent US20120136050A1

Assay Protocol: Particle size by laser diffraction (Malvern Mastersizer)
Type: physicochemical
Condition Parameters: material used in Example 2 study; material used in sleep latency study
Result Type: particle size D10 (µm)
Numbers only, in µm.

Recorded particle size D10 of `CCC(=O)NC[C@@H]1C[C@H]1c1cccc2c1CCO2` , please.
5

====

Assay Protocol: Particle size by laser diffraction (Malvern Mastersizer)
Assay type: physicochemical
Condition Parameters: material used in Example 1 study
Result Type: particle size D50 (µm)
Numbers only, in µm.

Recorded particle size D50 of `CCC(=O)NC[C@@H]1C[C@H]1c1cccc2c1CCO2` , please.
115

====

Assay Protocol: Particle size by laser diffraction (Malvern Mastersizer)
Assay type: physicochemical
Condition Parameters: material used in Example 2 study; material used in sleep latency study
Result Type: particle size D50 (µm)
Answers are plain numbers, in µm.

Recorded particle size D50 of CCC(=O)NC[C@@H]1C[C@H]1c1cccc2c1CCO2 [Compound A] , please.
25
